biological target: Protein skinhead-1 (Caenorhabditis elegans, UniProt P34707); type: functional
Sequence (P34707 whole entry): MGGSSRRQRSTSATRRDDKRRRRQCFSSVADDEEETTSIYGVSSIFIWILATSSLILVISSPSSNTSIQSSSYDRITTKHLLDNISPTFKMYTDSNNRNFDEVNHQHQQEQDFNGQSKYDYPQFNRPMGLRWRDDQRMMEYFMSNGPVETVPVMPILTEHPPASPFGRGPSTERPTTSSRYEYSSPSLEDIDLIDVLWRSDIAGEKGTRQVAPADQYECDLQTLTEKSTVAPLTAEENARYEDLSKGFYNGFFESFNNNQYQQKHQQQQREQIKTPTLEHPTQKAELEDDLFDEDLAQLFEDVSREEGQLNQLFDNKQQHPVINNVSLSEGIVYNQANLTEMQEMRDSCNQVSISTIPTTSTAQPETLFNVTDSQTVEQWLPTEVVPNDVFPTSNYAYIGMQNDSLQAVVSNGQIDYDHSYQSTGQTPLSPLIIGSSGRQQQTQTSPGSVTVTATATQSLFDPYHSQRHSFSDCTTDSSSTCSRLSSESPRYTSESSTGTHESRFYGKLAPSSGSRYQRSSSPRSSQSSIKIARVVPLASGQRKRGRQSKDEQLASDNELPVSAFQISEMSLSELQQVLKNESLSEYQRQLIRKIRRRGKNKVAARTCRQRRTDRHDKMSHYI
Activity calls are given as the source filed them.
Please answer using one outcome listed in T = active, F = inactive

Use these answered entries as a reference point.
> print(dat)
                                   compound  classlabel
1  O=C(NC1CC1)c1cc(-c2ccc(Br)cc2)nc2ccccc12           F
2            Cc1ccc(-c2csc(-c3ccncc3)n2)cc1           F
3  CC(=O)Nc1sc(/C(C#N)=C\c2cccc(Cl)c2)nc1-c1ccc(C)cc1           F
4  CCCC1=NN2C(=N)/C(=C\c3ccc(SCc4ccco4)o3)C(=O)N=C2S1           F
5                Clc1ccc2oc(-c3cccnc3)nc2c1           T

Name the outcome recorded for O=C(Nc1ccc(C2CC2(Cl)Cl)cc1)c1ccccc1Br (centres undefined) in the assay.
F

Tell me the recorded outcome of this test for Clc1ccc(-c2cn3c(n2)-c2ccccc2C3)cc1Cl .
F

Which outcome did this test record for the compound CCCOc1ccc(-c2nnc(-c3ccco3)o2)cc1 ?
F

Each compound tested received a call. Report the one for Cc1cc(C)c2cc(C#N)c(N3CCCC3)nc2c1 .
F

---

test system: SN12K1; assay: cells; assay type: functional; details: Homo sapiens
Active and inactive are the calls of the source.
Select the correct class. Options are active, inactive and nothing else.

Worked examples follow.
> print(dat)
                                   molecule  classlabel
1  CCCCCn1cc2c3c(cccc31)C1C=C(C)CN(C)[C@@H]1C2.Cc1ccc(C(=O)OC(C(=O)O)C(OC(=O)c2ccc(C)cc2)C(=O)O)cc1 (stereo not given)    inactive
2  C/C=C1/C(=O)O[C@]23C=C[C@@H]4C(C(=O)OC)=CO[C@H](O[C@@H]12)[C@@H]43      active
3       Cc1ccc2[nH]c3c(C)c4ccncc4c(C)c3c2c1      active
4             O=C(CCl)NNC1=Nc2ccc(Cl)cc2SC1    inactive

Now turn to the next molecule.
Test call for this molecule, please: COC1=C2C[C@@H](C)C[C@@H](OC)[C@@H](O)[C@H](C)/C=C(\C)[C@@H](OC(N)=O)[C@H](OC)/C=C\C=C(/C)C(=O)NC(=CC1=O)C2=O
active

---

test: HEp-2 cell cytotoxicity, dose response, cytotoxicity control for RSV inhibitor project, HTS (AID 2410); assay type: functional; conditions: human respiratory syncytial virus
The source made the active and inactive calls.
Provide the reported CC50 of each item.

> print(dat)
                                  cpdsmiles     reportedvalue
1  O=C(CNC(=O)c1cccs1)N=Nc1c(O)[nH]c2ccc([N+](=O)[O-])cc12  > 50 µM (active)
2  C/C(=N/NC(=O)c1cc2ccccc2cc1O)C1C(=O)c2ccccc2C1=O  > 50 µM (active)
3  O=C(Cn1cnc2c(cnn2-c2ccccc2)c1=O)N1CCOCC1  30.5 µM (active)
4  COc1ccccc1NC(=O)N1CCc2[nH]c3ccc(F)cc3c2C1  > 50 µM (active)
5  Cc1ccc2[nH]c(SCC(=O)Nc3ccc(C)c([N+](=O)[O-])c3)nc2c1  25.5 µM (active)
6  c1ccc(Cn2nnc3c(N4CCC5(CC4)OCCO5)ncnc32)cc1  29.6 µM (active)

In the following, a different molecule is considered.
For the molecule CCc1cccc2c(-c3cs/c(=N\C)n3C)c[nH]c12 , what CC50 is on record?
41.7 µM (active)
